system: Saccharomyces cerevisiae; assay: protein stability index of tFT-peptide fusion (C-terminal peptide) (PSI (0-1 scale)); higher = more stable (slower turnover); settings: genetic background: wild type; temperature: 30 C;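 note: PSI is a weighted mean of sequencing reads over stability bins, variants kept only with over 10 reads, mCherry proximal and sfGFP distal, peptide attached via GGGS linker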
property_label: protein stability index
I'd appreciate a reply containing only the number, no unit.

Dear colleague, I am looking for the recorded protein stability index of the following sequence: CRGPTQFAGPAP
0.68

What does the data say about its protein stability index? Entry: DSWGPGVSSRRW
0.732

Which value of protein stability index has been reported for KELGGSSEITEI in the records?
0.658

Quick one: protein stability index for VFFCVLRVFFSA ?
0.193

Reported protein stability index, sequence QLRPPHRTLHLP : ____
0.698

Recorded protein stability index for SDVKFGFCGVAS , please?
0.655

Field request: protein stability index | item: CLVSLPILLFFR
0.0658

Please look up its protein stability index: RGGRMGFYLVCI
0.636

Which protein stability index reading was recorded for the sequence QTGPPDPPLSPP ?
0.643

I would be grateful if you could share the reported protein stability index for PGSLSLSPLLPS .
0.758

// query protein stability index value for entry IILGVRQIEVNS
0.445

Reported protein stability index, sequence PPPPRPSPPSLP : ____
0.676

Query (sequence): PLTPPPAVHTYL ; field requested: protein stability index
0.72

Please look up its protein stability index: GSGTTGSLSYGV
0.695

Quick one: protein stability index of ENKGGNQKRRKK ?
0.559

Would you kindly share the measured protein stability index for FSHRPSPLSLSL ?
0.719

Entry VRGVCLWGGVVG : reported protein stability index = ?
0.641

Value lookup for protein stability index; key = GVVERGRRAGEG
0.659

For the sequence LVCPLGIEGFSM , what protein stability index is on record?
0.723
